assay: label from the status in PepcDB records
Value Kind: protein production

[[record]]
polymer_sequence = "SEYKFAKFAATYFQGTTTHSYTRRPLKQPLLYHDDEGDQLAALAVWITILRFMGDLPEPKYHTAMSDGSEKIPVMTKIYETLGKKTYKRELQALQGEGEAQLPEGQKKSSVR"
value_kind = "protein production"
value = "failed"

[[record]]
polymer_sequence = "MGQMISEMRHGVRRPVWHDLAERFDEPRECLASFLALEAAEVLAGEKPANLIGIANRTRACGRNLYVLWKQWGAMVLGESGLAVRELSDRGDSLLLLLYRPEALEALLRRPSASAVLARAGYGAATGLDEVLTELSTRIDGDRFPHEIGVFLGYPLKDVAAFMGLVRIPFACQGPWKIFGDPRESLRLAEVFRCCRARMAERLNRCTSALDCLADGSPRPVVGFDEIESHSYGGKAMCIAVIGGMDRLEKHYREEAVRSGVELRMFSQSENNIAVKLKRFDALVIFTNKVSHRVKNEAMAVAKQNGIPVFMHHSCGVCTLRDCLSCLTATVAHVGESDRPDLGRRKNHS"
value_kind = "protein production"
value = "failed"

[[record]]
polymer_sequence = "MTETYNKEQQEAMKKMMSFQMLYMLIMLGSLFIVITPSSRDAVGNLLNVVLIPTIGFGYRYPLLSIILTGVIIGVILSIPRYFFTDWVKMGKMQNTMKAFNEAIRAAYRERDMKKINKLNSMRMQMSMDQYQLSMNTMKPLLVISVLTILFYAWLFVFVGKIPYNYIAFPWDFNINISTAHFWIMPYWIFMYFLTEIVVSYFITMIMKYIDFTLRLRRISRETSS"
value_kind = "protein production"
value = "failed"

